// data source = patent US20150191469A1

Can you tell me pIC50 for the items I'm about to list?
- Test system: HIV
- Protocol Description: MT4 assay: antiviral HIV activity (cell protection, cell titer glo readout at 96 hours)
- Type: cell-based
- Condition Parameters: Human immunodeficiency virus 1, MT4, 96 h, MT4 cells, cell titer glo readout at 96 hours, 10 point dose response; read-out: HIV MT4 Assay IC50
One number for each entry, as −log10 of the molar value.

# count of solved cases: 5
Molecule: CC(=O)N1CCCN(C(=O)c2cc3c(-c4cc(F)c5c(c4C)CCCO5)c([C@H](OC(C)(C)C)C(=O)O)c(C)nc3n2C)CC1
pIC50: 5.17
//
Molecule: Cc1nc2c(cc(-c3ccnc(N4CCCN(C5COC5)CC4)c3)n2C)c(-c2ccc3c(c2)CCCO3)c1[C@H](OC(C)(C)C)C(=O)O
pIC50: 7.12
//
Molecule: Cc1nc2c(cc(-c3nc(N4CC[C@@H](N(C)C)C4)ns3)n2C)c(-c2cc(F)c3c(c2C)CCCO3)c1[C@H](OC(C)(C)C)C(=O)O
pIC50: 7.89
//
Molecule: Cc1nc2c(cc(-c3nc(N4CCN(C)CC4)ns3)n2C)c(-c2cc(F)c3c(c2C)CCCO3)c1[C@H](OC(C)(C)C)C(=O)O
pIC50: 7.95
//
Molecule: Cc1nc2c(cc(C(=O)NC3Cc4ccccc4C3)n2C)c(-c2cc(F)c3c(c2C)CCCO3)c1[C@H](OC(C)(C)C)C(=O)O
pIC50: 8.80

Please report pIC50 for every entry that follows.
1. Cc1nc2c(cc(C(=O)NCc3c(Cl)cccc3Cl)n2C)c(-c2cc(F)c3c(c2C)CCCO3)c1[C@H](OC(C)(C)C)C(=O)O
2. Cc1nc2c(cc(-c3ccnc(-c4cnc(O)nc4)c3)n2C)c(-c2cc(F)c3c(c2C)CCCO3)c1[C@H](OC(C)(C)C)C(=O)O (atropisomer, axis not shown)
3. Cc1nc2c(cc(-c3nnc(N4CCCN(C)CC4)o3)n2C)c(-c2cc(F)c3c(c2C)CCCO3)c1[C@H](OC(C)(C)C)C(=O)O
4. Cc1nc2c(cc(-c3cc(N4C[C@@H](C)O[C@@H](C)C4)ncn3)n2C)c(-c2cc(F)c3c(c2C)CCCO3)c1[C@H](OC(C)(C)C)C(=O)O (racemic)

Result:
[8.72, 5.07, 7.29, 7.96]

Please report pIC50 for every entry that follows.
1. Cc1nc2c(cc(C(=O)N3CCC(c4ccc(C#N)cc4)CC3)n2C)c(-c2cc(F)c3c(c2C)CCCO3)c1[C@H](OC(C)(C)C)C(=O)O
2. Cc1nc2c(cc(-c3ccnc(C#CCN4CCN(C)CC4)c3)n2C)c(-c2cc(F)c3c(c2C)CCCO3)c1[C@H](OC(C)(C)C)C(=O)O (atropisomer, axis not shown)
3. Cc1nc2c(cc(-c3ccnc(N4CCC(Oc5ccccc5)C4)c3)n2C)c(-c2cc(F)c3c(c2C)CCCO3)c1[C@H](OC(C)(C)C)C(=O)O (some centres unmarked)

Result:
1. 8.32
2. 6.82
3. 7.35

Please report pIC50 for every entry that follows.
1. Cc1nc2c(cc(-c3ccnc(C#CC(C)(C)N)c3)n2C)c(-c2cc(F)c3c(c2C)CCCO3)c1[C@H](OC(C)(C)C)C(=O)O (atropisomer, axis not shown)
2. Cc1nc2c(cc(C(=O)N3CCN(c4nccs4)CC3)n2C)c(-c2cc(F)c3c(c2C)CCCO3)c1[C@H](OC(C)(C)C)C(=O)O
3. Cc1nc2c(cc(-c3ccnc(N4CCCN(C5COC5)CC4)c3)n2C)c(-c2ccc3c(c2C)NCCO3)c1[C@H](OC(C)(C)C)C(=O)O
4. Cc1nc2c(cc(-c3ccnc(-c4ccc5[nH]ncc5c4C)c3)n2C)c(-c2cc(F)c3c(c2C)CCCO3)c1[C@H](OC(C)(C)C)C(=O)O (atropisomer, axis not shown)
5. Cc1nc2c(cc(-c3ccnc(N4CCN(C5CCOCC5)CC4)n3)n2C)c(-c2cc(F)c3c(c2C)CCCO3)c1[C@H](OC(C)(C)C)C(=O)O

Result:
1. 7.09
2. 7.40
3. 7.29
4. 8.19
5. 8.00

Please report pIC50 for every entry that follows.
1. COC[C@H]1CCCN1c1nnc(-c2cc3c(-c4cc(F)c5c(c4C)CCCO5)c([C@H](OC(C)(C)C)C(=O)O)c(C)nc3n2C)o1
2. Cc1nc2c(cc(C(=O)N3CCN(C(C)c4ccccc4)CC3)n2C)c(-c2cc(F)c3c(c2C)CCCO3)c1[C@H](OC(C)(C)C)C(=O)O (some centres unmarked)
3. Cc1nc2c(cc(C(=O)N3CCC(C)CC3)n2C)c(-c2cc(F)c3c(c2C)CCCO3)c1[C@H](OC(C)(C)C)C(=O)O
4. Cc1nc2c(cc(-c3cccc(-c4ccc5c(cnn5C)c4)n3)n2C)c(-c2cc(F)c3c(c2C)CCCO3)c1[C@H](OC(C)(C)C)C(=O)O

Result:
[7.89, 7.91, 7.59, 7.63]

Please report pIC50 for every entry that follows.
1. CCO[C@H](C(=O)O)c1c(C)nc2c(cc(-c3nnc(N4CCN(C5CCOCC5)CC4)o3)n2C)c1-c1cc(F)c2c(c1C)CCCO2
2. Cc1nc2c(cc(-c3ccnc(-c4cnc(N(C)C)nc4)c3)n2C)c(-c2cc(F)c3c(c2C)CCCO3)c1[C@H](OC(C)(C)C)C(=O)O (atropisomer, axis not shown)

Result:
[6.46, 8.14]
